testSystem: D(1A) dopamine receptor (Bos taurus)
Sequence (Q95136 whole entry): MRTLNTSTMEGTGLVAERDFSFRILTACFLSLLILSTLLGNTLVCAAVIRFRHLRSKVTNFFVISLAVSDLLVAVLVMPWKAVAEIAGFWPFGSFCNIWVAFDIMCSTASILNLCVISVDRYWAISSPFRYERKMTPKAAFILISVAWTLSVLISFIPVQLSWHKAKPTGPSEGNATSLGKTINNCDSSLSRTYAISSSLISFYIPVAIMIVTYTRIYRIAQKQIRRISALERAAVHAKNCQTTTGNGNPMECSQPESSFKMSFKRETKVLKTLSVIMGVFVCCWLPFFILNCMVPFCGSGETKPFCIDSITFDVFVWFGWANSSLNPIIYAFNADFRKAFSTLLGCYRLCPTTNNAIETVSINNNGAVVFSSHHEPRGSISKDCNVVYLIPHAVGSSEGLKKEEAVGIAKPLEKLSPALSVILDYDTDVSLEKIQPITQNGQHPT
methodSummary: Binding Affinity was tested for its ability to displace the radioligand [3H]-SCH- 23390 from High Affinity Site of Bovine dopamine receptor D1
quantityName: Ki

Query string: What value of Ki has been reported for the following compound? CCCN(CCC)C1CCC(=CC#N)CC1 (stereo unspecified)
Result string: > 20 µM

---

Measurement record for D(2) dopamine receptor (Homo sapiens); quantity recorded: pKi.
pKi here is simply -log10 of the concentration when that concentration is written in mol/L.

Query string: Entry C#CC(C#C)=C1CCC(N(CCC)CCC)CC1 (configuration not stated) : reported pKi = ?
Result string: 4.92

Query string: Another: CCCN(CCC)C1CC=C(C#C[Si](C)(C)C)CC1 (configuration not stated)
Result string: 6.80

Query string: Then what about the compound C#CC1=CCC(N(CCC)CCC)CC1 (configuration not stated) ?
Result string: 6.57

Query string: Try this compound too: CCCN(CCC)C1CCC(=C(C#Cc2ccccc2)C#Cc2ccccc2)CC1 (configuration not stated)
Result string: 5.28

Query string: Another compound: CCCN(CCC)C1CCC(=C(C#C[Si](C)(C)C)C#C[Si](C)(C)C)CC1 (configuration not stated)
Result string: 4.96

---

testSystem: D(3) dopamine receptor (Homo sapiens, UniProt P35462)
Sequence (P35462 whole entry): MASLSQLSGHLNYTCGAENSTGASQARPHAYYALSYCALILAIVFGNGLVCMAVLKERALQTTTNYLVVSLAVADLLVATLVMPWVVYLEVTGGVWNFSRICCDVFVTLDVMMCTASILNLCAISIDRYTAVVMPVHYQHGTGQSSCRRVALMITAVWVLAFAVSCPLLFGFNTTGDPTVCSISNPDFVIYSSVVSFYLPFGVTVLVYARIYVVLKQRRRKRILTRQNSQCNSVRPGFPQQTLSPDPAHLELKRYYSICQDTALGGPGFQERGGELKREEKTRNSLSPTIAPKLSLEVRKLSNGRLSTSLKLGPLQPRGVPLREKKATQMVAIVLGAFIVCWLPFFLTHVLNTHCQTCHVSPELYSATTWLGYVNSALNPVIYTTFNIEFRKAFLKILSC
methodSummary: Dissociation constant of compound on one-site model Dopamine receptor D3
quantityName: pKi
// field semantics: pKi = negative decimal log of concentration (mol/L)

Query string: # get_value(readout='pKi', item= CCCN(CCC)C1CC=C(C#C[Si](C)(C)C)CC1 (stereo unspecified) )
Result string: 6.09

---

testSystem: D(2) dopamine receptor (Homo sapiens, UniProt P14416)
Sequence (P14416 whole entry): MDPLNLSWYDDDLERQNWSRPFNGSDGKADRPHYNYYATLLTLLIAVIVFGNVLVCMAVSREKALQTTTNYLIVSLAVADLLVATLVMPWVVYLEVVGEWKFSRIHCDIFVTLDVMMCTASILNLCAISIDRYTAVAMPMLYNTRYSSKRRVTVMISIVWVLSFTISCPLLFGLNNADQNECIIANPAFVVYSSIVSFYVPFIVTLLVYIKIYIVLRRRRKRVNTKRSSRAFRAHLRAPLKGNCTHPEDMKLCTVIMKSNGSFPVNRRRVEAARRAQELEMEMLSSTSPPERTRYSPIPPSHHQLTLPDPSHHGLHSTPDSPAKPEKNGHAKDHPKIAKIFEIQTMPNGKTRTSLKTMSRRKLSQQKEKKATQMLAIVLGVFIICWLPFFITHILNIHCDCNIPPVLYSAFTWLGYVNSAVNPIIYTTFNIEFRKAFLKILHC
methodSummary: Binding Affinity was determined in the presence of 100 micro M Gpp(NH)p for decoupling of the ternary complex of Compound to Dopamine receptor D2L
quantityName: Ki

Query string: Recorded Ki for CCCN(CCC)C1CC=C(C#C[Si](C)(C)C)CC1 (configuration not stated) , please?
Result string: > 20 µM

Query string: Same question, C#CC1=CCC(N(CCC)CCC)CC1 (configuration not stated) this time
Result string: 19 µM

---

testSystem: D(3) dopamine receptor (Homo sapiens, UniProt P35462)
quantityName: log10 of Ki (log10 of the value in nM)
On a log10 scale: recorded Ki, unit nM.

Query string: Which measured log10 of Ki value corresponds to C#CC1=CCC(N(CCC)CCC)CC1 (stereo not drawn) ?
Result string: 0.72

Query string: Now try CCCN(CCC)C1CCC(=C(C#Cc2ccccc2)C#Cc2ccccc2)CC1 (stereo not drawn) .
Result string: 3.26

Query string: Another compound: C#CC(C#C)=C1CCC(N(CCC)CCC)CC1 (stereo not drawn)
Result string: 3.64

Query string: Here is the next compound: CCCN(CCC)C1CCC(=C(C#N)C#N)CC1 (stereo not drawn)
Result string: 3.20

Query string: Then CCCN(CCC)C1CC=C(C#Cc2ccccc2)CC1 (stereo not drawn) ?
Result string: 3.54

Query string: Check CCCN(CCC)C1CCC(=C(C#C[Si](C)(C)C)C#C[Si](C)(C)C)CC1 (stereo not drawn) too.
Result string: 3.45

Query string: Same for CCCN(CCC)C1CC=C(C#N)CC1 (stereo not drawn)
Result string: 4.11

Query string: Would you kindly repeat that for CCCN(CCC)C1CC=C(C#C[Si](C)(C)C)CC1 (stereo not drawn) ?
Result string: 1.67
